Target: T1, AnkR_repeats (24 ANK repeats of ankyrin-R, residues 42–853) (mouse, UniProt Q02357-6 42-853)
T1 chain: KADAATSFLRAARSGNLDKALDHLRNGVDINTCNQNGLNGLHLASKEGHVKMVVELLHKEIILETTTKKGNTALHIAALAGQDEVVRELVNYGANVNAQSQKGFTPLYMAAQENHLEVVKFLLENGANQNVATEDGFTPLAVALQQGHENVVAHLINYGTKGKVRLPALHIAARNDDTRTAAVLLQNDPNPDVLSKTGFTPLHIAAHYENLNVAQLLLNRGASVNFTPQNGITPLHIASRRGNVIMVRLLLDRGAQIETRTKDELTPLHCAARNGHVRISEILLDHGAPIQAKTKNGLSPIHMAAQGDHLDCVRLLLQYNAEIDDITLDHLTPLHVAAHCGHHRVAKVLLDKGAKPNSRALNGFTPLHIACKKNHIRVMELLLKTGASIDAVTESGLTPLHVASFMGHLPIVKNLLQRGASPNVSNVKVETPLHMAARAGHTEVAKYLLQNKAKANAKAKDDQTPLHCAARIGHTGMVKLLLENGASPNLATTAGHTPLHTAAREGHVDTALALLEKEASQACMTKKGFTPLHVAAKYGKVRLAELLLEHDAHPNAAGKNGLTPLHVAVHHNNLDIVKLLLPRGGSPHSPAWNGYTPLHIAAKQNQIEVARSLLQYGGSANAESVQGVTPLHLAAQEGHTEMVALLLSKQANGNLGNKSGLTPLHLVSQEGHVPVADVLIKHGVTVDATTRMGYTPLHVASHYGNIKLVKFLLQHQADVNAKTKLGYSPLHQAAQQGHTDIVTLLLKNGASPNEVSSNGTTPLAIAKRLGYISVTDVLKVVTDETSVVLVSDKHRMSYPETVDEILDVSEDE
Assay: ITC
Recorded measurements of Kd, one per entry
I only need the number, in nM, no unit after it.

# BINDER, UNIT INFO, ASSAY VALUE
measured = [
    ("DAIPLAATEHDTMLEMSDMQVWSAGLTPSLVTAEDS [AnkR 1589-1624]", "nM", 2200),
    ("AnkR 1529-1825 (protein) RQSRNLKPERRHGDREYSLSPSQVNGYSSLQDELLSPASLQYALPSPLCADQYWNEVTVIDAIPLAATEHDTMLEMSDMQVWSAGLTPSLVTAEDSSLECSKAEDSDAIPEWKLEGAHSEDTQGPELGSQDLVEDDTVDSDATNGLADLLGQEEGQRSEKKRQEVSGTEQDTETEVSLVSGQQRVHARITDSPSVRQVLDRSQARTLDWDKQGSTAVHPQEATQSSWQEEVTQGPHSFQRRITTIQGPEPGALQEYEQVLVSTREHVQRGPPETGSPKAGKEPSLWAPESAFSQEVQ", "nM", 1000),
    ("DAIPLAATEHDTMLEMSDMQVWSA [AnkR 1589-1612]", "nM", 23000),
    ("AnkR 1529-1672 (protein) RQSRNLKPERRHGDREYSLSPSQVNGYSSLQDELLSPASLQYALPSPLCADQYWNEVTVIDAIPLAATEHDTMLEMSDMQVWSAGLTPSLVTAEDSSLECSKAEDSDAIPEWKLEGAHSEDTQGPELGSQDLVEDDTVDSDATN", "nM", 1100),
]

Kindly review the next binder as well.
QUERY: Name the reported Kd value associated with the binder CADQYWNEVTVIDAIPLAATEHDTMLEMSDMQVWSA [AnkR 1577-1612]
RESULT: 2000
